Experiment: Aqueous solubility at pH 7.4
Recorded solubility values for a group of molecules are listed next.
METRIC NAME: solubility (µM)

1. NC1(c2ccc(-c3c(-c4ccccc4)ccn4ncnc34)cc2)CCC1	1000
2. NC1(c2ccc(-c3ncc4ccncc4c3-c3ccccc3)cc2)CCC1	1400
3. NC1(c2ccc(-c3ncc4cnccc4c3-c3ccccc3)cc2)CCC1	2200
4. NC1(c2ccc(-c3ncc4cccnc4c3-c3ccccc3)cc2)CCC1	2000
5. NC1(c2ccc(-c3nc4ccccc4cc3-c3ccccc3)cc2)CCC1	290
6. NC1(c2ccc(-c3nc4ccccn4c3-c3ccccc3)cc2)CCC1	1900
7. NC1(c2ccc(-c3nn4ccc(=O)nc4cc3-c3ccccc3)cc2)CCC1	1900
8. NC1(c2ccc(-c3ncc4nccn4c3-c3ccccc3)cc2)CCC1	2500
9. NC1(c2ccc(-c3nc4ccccc4c(=O)n3-c3ccccc3)cc2)CCC1	2300

###

Test: Aqueous solubility at pH 7.4
Recorded solubility values for a group of molecules are listed next.
METRIC NAME: solubility (µM)

1. NC1(c2ccc(-n3c(-c4ccccc4)nc4ccccc4c3=O)cc2)CCC1	1400
2. NC(=O)c1ccn2c(-c3ccccc3)c(-c3ccc(C4(N)CCC4)cc3)nc2c1	110
3. NC1(c2ccc(-c3nn4cccc4cc3-c3ccccc3)cc2)CCC1	27
4. NC1(c2ccc(-c3ncc4cccn4c3-c3ccccc3)cc2)CCC1	1500
5. NC1(c2ccc(-c3c(-c4ccccc4)ncc4nccn34)cc2)CCC1	2500

###

Assay: Blood clearance in iv dosed Han Wistar rat
Settings: whole blood
class 1 if clearance is below 40 mL/min/kg. class 0 if not; exact matches included in class 0.

1. NC1(c2ccc(-c3ncc4nccn4c3-c3ccccc3)cc2)CCC1	class 0
2. NC(=O)c1cnc(-c2ccc(C3(N)CCC3)cc2)c(-c2ccccc2)c1	class 1
3. NC1(c2ccc(-c3nn4ccccc4c3-c3ccccc3)cc2)CCC1	class 0

###

Assay: Blood clearance in iv dosed Han Wistar rat
Conditions: in vivo
Recorded clearance values for a group of compounds are listed next.
METRIC NAME: clearance (mL/min/kg)

1) NC1(c2ccc(-c3nn4ccnc4cc3-c3ccccc3)cc2)CCC1	57
2) NC1(c2ccc(-c3nc4ccccc4cc3-c3ccccc3)cc2)CCC1	26

Entry source: ChEMBL document CHEMBL2034885
